Data origin, for the record: patent US20250163162A1

# tested-target: T1, IL10Rα/IL2Rγ receptor (human) (UniProt Q13651)
# T1 sequence (looked up) 1: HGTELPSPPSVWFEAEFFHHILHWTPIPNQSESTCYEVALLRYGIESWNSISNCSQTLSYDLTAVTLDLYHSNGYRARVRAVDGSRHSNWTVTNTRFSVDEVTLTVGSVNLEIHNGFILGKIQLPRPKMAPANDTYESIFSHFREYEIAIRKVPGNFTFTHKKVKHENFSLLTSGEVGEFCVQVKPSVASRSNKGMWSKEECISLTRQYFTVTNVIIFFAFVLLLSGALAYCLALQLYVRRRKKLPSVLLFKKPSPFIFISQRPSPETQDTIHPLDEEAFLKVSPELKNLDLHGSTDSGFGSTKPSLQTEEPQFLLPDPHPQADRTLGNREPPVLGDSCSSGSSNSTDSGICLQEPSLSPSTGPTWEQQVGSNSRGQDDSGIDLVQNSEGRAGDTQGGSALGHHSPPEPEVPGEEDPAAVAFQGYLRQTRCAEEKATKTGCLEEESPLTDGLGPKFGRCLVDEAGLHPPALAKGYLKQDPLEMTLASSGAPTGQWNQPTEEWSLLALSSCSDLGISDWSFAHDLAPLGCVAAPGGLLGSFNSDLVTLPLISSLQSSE
# T1 sequence (looked up) 2: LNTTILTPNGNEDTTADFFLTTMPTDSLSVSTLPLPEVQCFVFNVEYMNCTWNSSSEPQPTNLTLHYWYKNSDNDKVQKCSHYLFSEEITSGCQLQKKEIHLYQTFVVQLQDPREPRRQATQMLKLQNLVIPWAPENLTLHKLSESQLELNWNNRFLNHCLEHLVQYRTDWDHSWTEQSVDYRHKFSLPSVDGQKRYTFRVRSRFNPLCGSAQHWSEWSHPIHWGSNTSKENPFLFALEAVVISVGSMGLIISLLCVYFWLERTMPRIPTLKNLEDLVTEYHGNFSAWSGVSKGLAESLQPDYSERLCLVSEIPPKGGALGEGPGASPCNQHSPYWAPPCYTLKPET
# method-summary: cell-based or functional assay
metric-name: IL-1β secretion, LPS treated monocytes, at 100 µM (pg/mL)

1) hIL10Ra_VHH14 - hIL2Rg_VHH19, linker GGGS, tag Fc (bispecific antibody, not shown: a dimerising Fc or GST) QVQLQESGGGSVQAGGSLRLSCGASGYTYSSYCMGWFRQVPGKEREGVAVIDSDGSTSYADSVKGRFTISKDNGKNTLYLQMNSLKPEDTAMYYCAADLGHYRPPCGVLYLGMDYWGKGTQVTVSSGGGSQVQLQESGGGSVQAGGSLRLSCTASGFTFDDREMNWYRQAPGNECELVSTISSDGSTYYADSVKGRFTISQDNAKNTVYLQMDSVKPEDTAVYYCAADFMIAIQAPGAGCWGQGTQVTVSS    6480
2) hIL10Ra_VHH14 - hIL2Rg_VHH19, No linker, tag his (bispecific antibody, not shown: small tags and cut ends) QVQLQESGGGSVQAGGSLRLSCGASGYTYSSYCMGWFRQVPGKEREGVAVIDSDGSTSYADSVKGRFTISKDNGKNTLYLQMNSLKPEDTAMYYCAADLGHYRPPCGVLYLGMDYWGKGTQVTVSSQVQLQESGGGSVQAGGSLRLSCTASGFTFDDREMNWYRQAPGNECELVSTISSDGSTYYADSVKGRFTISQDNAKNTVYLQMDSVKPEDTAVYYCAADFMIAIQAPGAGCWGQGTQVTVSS    7100
3) hIL10Ra_VHH14 - hIL2Rg_VHH19, linker GGSGGS, tag his (bispecific antibody, not shown: small tags and cut ends) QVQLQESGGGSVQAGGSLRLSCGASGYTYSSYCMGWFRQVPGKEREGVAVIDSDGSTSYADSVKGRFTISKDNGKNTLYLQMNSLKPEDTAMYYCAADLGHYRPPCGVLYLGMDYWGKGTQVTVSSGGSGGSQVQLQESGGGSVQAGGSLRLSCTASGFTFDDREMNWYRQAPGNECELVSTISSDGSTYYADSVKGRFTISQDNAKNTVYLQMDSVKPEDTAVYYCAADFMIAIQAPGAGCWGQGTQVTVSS    7840
